These data points were gathered from ChEMBL document CHEMBL5550184.

Test: Apparent permeability in human Caco-2 cells incubated for 180 mins by LC-MS/MS method
Format: ADME, cell-based
Starred links: 1 amine or outer side, 2 acyl side, 3 side chain; linkers in the order of their positions; H or OH if unused. Positions of bridges follow the written chain, without caps; N, C: chain ends. Non-standard residues stand in square brackets, D forms with d. Residues, ends and D or L forms follow the SMILES beside them. *: point of attachment. hPhe(3-Cl-4-CF3) = N[C@@H](CCc1ccc(C(F)(F)F)c(Cl)c1)C(=O)O; NMePhe(4-Cl) = CN[C@@H](Cc1ccc(Cl)cc1)C(=O)O; X1 = O=C([C@H](CC(=O)[*:2])N[*:1])n1cccc1; Phe(3-Cl) = N[C@@H](Cc1cccc(Cl)c1)C(=O)O; NMeCha = CN[C@@H](CC1CCCCC1)C(=O)O; NMeGly(cPr) = CN[C@H](C(=O)O)C1CC1; NMeF = CN[C@@H](Cc1ccccc1)C(=O)O; NMeD = CN[C@@H](CC(=O)O)C(=O)O; NMeL = CN[C@@H](CC(C)C)C(=O)O; NMeV = CN[C@H](C(=O)O)C(C)C; NMeA = CN[C@@H](C)C(=O)O; Piperidide = C1CCN(*)CC1; Ac5c = NC1(C(=O)O)CCCC1; Aze = O=C(O)[C@@H]1CCN1; Sar = CNCC(=O)O
Parameter measured: Papp at 3 h (nm/s)
Give a bare numeral; the unit nm/s is implied.

Record excerpt, results attached:
[
  {
    "Molecule": "CC[C@H](C)[C@@H]1NC(=O)[C@H](CC(C)C)N(C)C(=O)C[C@@H](C(=O)N2CCCCC2)N(C)C(=O)[C@H](C)N(C)C(=O)C2(CCCC2)NC(=O)[C@@H]2CCCN2C(=O)[C@H](CCc2ccc(C(F)(F)F)c(Cl)c2)NC(=O)CN(C)C(=O)[C@H](CC2CCCCC2)N(C)C(=O)[C@@H]2CCN2C(=O)[C@H](C)N(C)C1=O ([NMeL]I[NMeA][Aze][NMeCha][Sar][hPhe(3-Cl-4-CF3)]P[Ac5c][NMeA][NMeD]-Piperidide; lactam N-11)",
    "Assay value": 9.7
  },
  {
    "Molecule": "CC[C@H](C)[C@@H]1NC(=O)[C@H](C)N(C)C(=O)C[C@@H](C(=O)n2cccc2)NC(=O)[C@H](CC2CCCCC2)N(C)C(=O)[C@H](Cc2ccccc2)N(C)C(=O)[C@H](Cc2ccccc2)NC(=O)[C@H](Cc2cccc(Cl)c2)NC(=O)CN(C)C(=O)[C@H](Cc2ccc(Cl)cc2)N(C)C(=O)CN(C)C(=O)CN(C)C1=O (cyclo(F[NMeF][NMeCha][X1][NMeA]I[Sar][Sar][NMePhe(4-Cl)][Sar][Phe(3-Cl)]))",
    "Assay value": 0.7
  }
]

Let us move to another entry and its Papp at 3 h.
Measured Papp at 3 h, CC[C@H](C)[C@@H]1NC(=O)[C@H](C2CC2)N(C)C(=O)C[C@@H](C(=O)N2CCCCC2)N(C)C(=O)[C@H](C(C)C)N(C)C(=O)C2(CCCC2)NC(=O)[C@@H]2CCCN2C(=O)[C@H](CCc2ccc(C(F)(F)F)c(Cl)c2)NC(=O)CN(C)C(=O)[C@H](CC2CCCCC2)N(C)C(=O)CN(C)C(=O)CN(C)C1=O ([NMeGly(cPr)]I[Sar][Sar][NMeCha][Sar][hPhe(3-Cl-4-CF3)]P[Ac5c][NMeV][NMeD]-Piperidide; lactam N-11) : 4.6

====

# K annotations
System: GTPase KRas (Homo sapiens), P01116 [G12D]
Sequence (P01116 whole entry G12D, looked up): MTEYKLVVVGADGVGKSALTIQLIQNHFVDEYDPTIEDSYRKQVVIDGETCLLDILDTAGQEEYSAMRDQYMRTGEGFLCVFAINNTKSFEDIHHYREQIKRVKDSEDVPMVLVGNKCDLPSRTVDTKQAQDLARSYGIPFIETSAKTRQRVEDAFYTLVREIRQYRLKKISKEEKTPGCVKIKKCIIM
Assay: Binding affinity to biotinylated KRAS G12D mutant (unknown origin) assessed as Kon incubated for 120 mins by SPR analysis
Positions of bridges follow the written chain, without caps; N, C: chain ends. Non-standard residues stand in square brackets, D forms with d. Residues, ends and D or L forms follow the SMILES beside them. *: point of attachment. hPhe(3-Cl-4-CF3) = N[C@@H](CCc1ccc(C(F)(F)F)c(Cl)c1)C(=O)O; NMeCha = CN[C@@H](CC1CCCCC1)C(=O)O; NMeChg = CN[C@H](C(=O)O)C1CCCCC1; NMeD = CN[C@@H](CC(=O)O)C(=O)O; NMeL = CN[C@@H](CC(C)C)C(=O)O; NMeAc5c = CNC1(C(=O)O)CCCC1; Piperidide = C1CCN(*)CC1; Ac5c = NC1(C(=O)O)CCCC1; Sar = CNCC(=O)O

[
  {
    "Compound": "CC[C@H](C)[C@@H]1NC(=O)[C@H](CC(C)C)N(C)C(=O)C[C@@H](C(=O)N2CCCCC2)N(C)C(=O)[C@H](C2CCCCC2)N(C)C(=O)C2(CCCC2)NC(=O)[C@@H]2CCCN2C(=O)[C@H](CCc2ccc(C(F)(F)F)c(Cl)c2)NC(=O)CN(C)C(=O)[C@H](CC2CCCCC2)N(C)C(=O)CN(C)C(=O)CN(C)C1=O ([NMeL]I[Sar][Sar][NMeCha][Sar][hPhe(3-Cl-4-CF3)]P[Ac5c][NMeChg][NMeD]-Piperidide; lactam N-11)",
    "Measurement target": "GTPase KRas (Homo sapiens), P01116 [G12D]",
    "K": "7.8 10^5/Ms"
  }
]

Let us move to another entry and its K.
Observed K, GTPase KRas (Homo sapiens), P01116 [G12D], CC[C@H](C)[C@@H]1NC(=O)C2(CCCC2)N(C)C(=O)C[C@@H](C(=O)N2CCCCC2)N(C)C(=O)[C@H](C2CCCCC2)N(C)C(=O)C2(CCCC2)NC(=O)[C@@H]2CCCN2C(=O)[C@H](CCc2ccc(C(F)(F)F)c(Cl)c2)NC(=O)CN(C)C(=O)[C@H](CC2CCCCC2)N(C)C(=O)CN(C)C(=O)CN(C)C1=O ([NMeAc5c]I[Sar][Sar][NMeCha][Sar][hPhe(3-Cl-4-CF3)]P[Ac5c][NMeChg][NMeD]-Piperidide; lactam N-11) : 3.8 10^5/Ms

====

# IC50 annotations
Test: Inhibition of biotin-tagged KRAS G12D mutant (unknown origin) to recombinant His-tagged SOS1 (unknown origin) protein-protein interaction incubated for 120 mins by AlphaLISA method
Design: species or system Homo sapiens
Positions of bridges follow the written chain, without caps; N, C: chain ends. Non-standard residues stand in square brackets, D forms with d. Residues, ends and D or L forms follow the SMILES beside them. *: point of attachment. hPhe(3-Cl-4-CF3) = N[C@@H](CCc1ccc(C(F)(F)F)c(Cl)c1)C(=O)O; NMeGly(cPent) = CN[C@H](C(=O)O)C1CCCC1; NMeCha = CN[C@@H](CC1CCCCC1)C(=O)O; NMeChg = CN[C@H](C(=O)O)C1CCCCC1; NMeD = CN[C@@H](CC(=O)O)C(=O)O; NMeL = CN[C@@H](CC(C)C)C(=O)O; NMehSer = CN[C@@H](CCO)C(=O)O; NMeNva = CCC[C@H](NC)C(=O)O; NMeA = CN[C@@H](C)C(=O)O; Piperidide = C1CCN(*)CC1; Ac5c = NC1(C(=O)O)CCCC1; Aze = O=C(O)[C@@H]1CCN1; Sar = CNCC(=O)O

Record excerpt, results attached:
[
  {
    "Compound": "CC[C@H](C)[C@@H]1NC(=O)[C@H](C)N(C)C(=O)C[C@@H](C(=O)N2CCCCC2)N(C)C(=O)[C@H](C2CCCCC2)N(C)C(=O)C2(CCCC2)NC(=O)[C@@H]2CCCN2C(=O)[C@H](CCc2ccc(C(F)(F)F)c(Cl)c2)NC(=O)CN(C)C(=O)[C@H](CC2CCCCC2)N(C)C(=O)CN(C)C(=O)CN(C)C1=O ([NMeA]I[Sar][Sar][NMeCha][Sar][hPhe(3-Cl-4-CF3)]P[Ac5c][NMeChg][NMeD]-Piperidide; lactam N-11)",
    "Assay value": "< 2 nM"
  },
  {
    "Compound": "CC[C@H](C)[C@@H]1NC(=O)[C@H](CC(C)C)N(C)C(=O)C[C@@H](C(=O)N2CCCCC2)N(C)C(=O)[C@H](C2CCCC2)N(C)C(=O)C2(CCCC2)NC(=O)[C@@H]2CCCN2C(=O)[C@H](CCc2ccc(C(F)(F)F)c(Cl)c2)NC(=O)CN(C)C(=O)[C@H](CC2CCCCC2)N(C)C(=O)[C@@H]2CCN2C(=O)[C@H](C)N(C)C1=O ([NMeL]I[NMeA][Aze][NMeCha][Sar][hPhe(3-Cl-4-CF3)]P[Ac5c][NMeGly(cPent)][NMeD]-Piperidide; lactam N-11)",
    "Assay value": "< 2 nM"
  },
  {
    "Compound": "CC[C@H](C)[C@@H]1NC(=O)[C@H](CC2CCCCC2)N(C)C(=O)C[C@@H](C(=O)N2CCCCC2)N(C)C(=O)[C@H](C2CCCCC2)N(C)C(=O)C2(CCCC2)NC(=O)[C@@H]2CCCN2C(=O)[C@H](CCc2ccc(C(F)(F)F)c(Cl)c2)NC(=O)CN(C)C(=O)[C@H](CC2CCCCC2)N(C)C(=O)CN(C)C(=O)CN(C)C1=O ([NMeCha]I[Sar][Sar][NMeCha][Sar][hPhe(3-Cl-4-CF3)]P[Ac5c][NMeChg][NMeD]-Piperidide; lactam N-11)",
    "Assay value": "< 2 nM"
  },
  {
    "Compound": "CCC[C@H]1C(=O)N[C@@H]([C@@H](C)CC)C(=O)N(C)CC(=O)N(C)CC(=O)N(C)[C@@H](CC2CCCCC2)C(=O)N(C)CC(=O)N[C@@H](CCc2ccc(C(F)(F)F)c(Cl)c2)C(=O)N2CCC[C@H]2C(=O)NC2(CCCC2)C(=O)N(C)[C@@H](C2CCCCC2)C(=O)N(C)[C@H](C(=O)N2CCCCC2)CC(=O)N1C ([NMeNva]I[Sar][Sar][NMeCha][Sar][hPhe(3-Cl-4-CF3)]P[Ac5c][NMeChg][NMeD]-Piperidide; lactam N-11)",
    "Assay value": "< 2 nM"
  }
]

Let us move to another entry and its IC50.
Measured IC50, CC[C@H](C)[C@@H]1NC(=O)[C@H](CCO)N(C)C(=O)C[C@@H](C(=O)N2CCCCC2)N(C)C(=O)[C@H](C2CCCCC2)N(C)C(=O)C2(CCCC2)NC(=O)[C@@H]2CCCN2C(=O)[C@H](CCc2ccc(C(F)(F)F)c(Cl)c2)NC(=O)CN(C)C(=O)[C@H](CC2CCCCC2)N(C)C(=O)CN(C)C(=O)CN(C)C1=O ([NMehSer]I[Sar][Sar][NMeCha][Sar][hPhe(3-Cl-4-CF3)]P[Ac5c][NMeChg][NMeD]-Piperidide; lactam N-11) : < 2 nM
